Entry source: patent US20220112288A1

# TARGET OR SYSTEM: T1, Recombinant human CD4 (R&D Systems, Cat. 10327-CD) (human, UniProt P01730 26-390, limits assumed)
# T1 construct: Bought reagent; also called huCD4
# ASSAY PROCEDURE: BLI Octet, non-clonal supernatant on AMC sensor, 100 nM human CD4, 1:1 local fit;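 further: Single-concentration kinetics per supernatant, with the 1:1 model fitted across both the association and dissociation phases of the sensorgram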
READOUT: koff (s⁻¹)
One number for each entry, in s⁻¹.

75110_11D03A (antibody, V domains shown, Tested as non-clonal AlivaMab Mouse Kappa hybridoma supernatant, captured by anti-mouse IgG Fc sensor) VH: EVQLVESGGGLVQPGGSLRLSCAASGFTFSSYWMSWVRQAPGKGLEWVANINQDGNEKYYVDSVKGRFTISRDNAKNSLFLQMNSLRAEDTAVYYCAREGGQWLALDYWGQGALVTVSS VL: DIQMTQSPSSVSASVGDRVTITCRASQGISSWLAWYQQKPGKAPKFLISGASSLQSGVPSRFSGSGSGTDFTLTISSLQPEDFATYYCQQANSFPWTFGQGTKVEIK	0.000524
75110_02N15A (antibody, V domains shown, Tested as non-clonal AlivaMab Mouse Kappa hybridoma supernatant, captured by anti-mouse IgG Fc sensor) VH: EVQLVESGGGLVQPGGSLRLSCAASGFTFSSYWMSWVRQAPGKGLEWVANINEDGNEKYYVDSVKGRFTISRDNAKNSLFLQMNSLRAEDTAVYFCAREGGQWLALDHWGQGALVTVSS VL: DIQMTQSPSSVSASVGDRVTITCRASQGISSWLAWYQQKPGKAPKFLISGASSLQSGVPSRFSGSGSGTDFTLTISSLQPEDFATYYCQQANSFPWTFGQGTKVEFK	0.00069
75110_07B16A (antibody, V domains shown, Tested as non-clonal AlivaMab Mouse Kappa hybridoma supernatant, captured by anti-mouse IgG Fc sensor) VH: QVQLQQWGAGLLKPSETLSLTCAVYGGSFSGYYWSWIRQSPGKGLEWIGEINQSGSTNYNPSLKSRVTISVDTSKDQFSLKLSSVTAADTAVYYCARVINWFDSWGQGSLVTVSS VL: DIQMTQSPSSVSASVGDRVTITCRASQGISSWLAWYQQKPGKAPKLLIYDASSFQSGVPSRFSGSGSGTDFTLTISSLQTDDFATYYCQQANSFPYTFGQGTKLEIK	0.00013

// for each binder below, give its koff
1. 75110_13P21A (antibody, V domains shown, Tested as non-clonal AlivaMab Mouse Kappa hybridoma supernatant, captured by anti-mouse IgG Fc sensor) VH: QVQLQQWGAGLLKPSETLSLTCAVSGGSFSGYYWSWIRQPPGKGLEWIGEINHSGSTNCNPSLKSRVTISVDTSNNQFSLKLSSVTAADTAVYYCARVLNYFDYWGQGTLVTVSS VL: DIQMTQSPSSVSASVGDRVTITCRASPDIANWLAWYQQKPGKAPELLIYAASSLQSGVPSRFSGSGSGTDFTLTISSLQPEDFATYFCQQANSFPLTFGGGTKVESK
2. 75110_12H19A (antibody, V domains shown, Tested as non-clonal AlivaMab Mouse Kappa hybridoma supernatant, captured by anti-mouse IgG Fc sensor) VH: EVQLVESGGGLVQPGGSLRLSCAASGFTFSSYWMSWVRQAPGQGLEWVANINEDGNEKYHVDSVKGRLTISRDNAKNSLYLQMNSLRGVDTAVYFCAREGGQWLALDYWGQGALVTVSS VL: DIQMTQSPSSVSASVGDRVSITCRASQGISSWLAWYQQKPGKAPKLLIYGASGLQSGVPSRFSGSGSGTDFTLTISSLQPEDFATYYCQQANSFPWTFGQGTKVEIK

[0.000315, 0.0012]
